Exercise: state measured IC50 for each of the compounds provided.
- targetOfAssay: UniProtKB P56373
- assayProtocol: Evaluation of human P2X3 receptor inhibitory activity (Test Example 1)
- conditionInfo: C6BU-1 cell transfected with human P2X3 receptor gene, FLIPR 384
- Source text: […]
Your answer is read as nM, so omit the unit and give the number.

Ask: # lookup: IC50 of C[C@H](C(=O)O)[C@@H](C)n1c(=O)[nH]/c(=N\c2ccc(Oc3ccccn3)cc2)n(Cc2ccc(Cl)cc2)c1=O [Compound I-152]
Reply: 6

Ask: Similarly, Cc1cc(/N=c2\[nH]c(=O)n(CC(C)(C)C(=O)O)c(=O)n2Cc2ccc(Cl)cc2)ccc1Oc1cncc(F)c1 [Compound R-118] ?
Reply: 5

Ask: // repeat for CCc1oc2ccc(/N=c3\[nH]c(=O)n(C[C@@H](O)CC(=O)O)c(=O)n3Cc3ccc(Cl)cc3)cc2c1C [Compound R-178] and report
Reply: 45

Ask: Now give it for COc1ccc(Oc2ccc(/N=c3\[nH]c(=O)n(C[C@H](C)C(=O)O)c(=O)n3Cc3ccc(Cl)cc3)cc2)nn1 [Compound R-085] too.
Reply: 6

Ask: Then this compound: COC(=O)[C@@H](C)Cn1c(=O)[nH]/c(=N\c2ccc(N3CCOCC3)c(F)c2)n(Cc2ccc(Cl)cc2)c1=O [Compound R-106]
Reply: 379

Ask: Moving on to Cc1ccc(Oc2ccc(/N=c3\[nH]c(=O)n([C@@H](C)[C@@H](C)C(=O)O)c(=O)n3Cc3ccc(Cl)cc3)cc2)nc1 [Compound I-074]
Reply: 5

---

- targetOfAssay: human P2X3 receptor (Homo sapiens (Human), UniProt P56373)
- Sequence (P56373 whole entry): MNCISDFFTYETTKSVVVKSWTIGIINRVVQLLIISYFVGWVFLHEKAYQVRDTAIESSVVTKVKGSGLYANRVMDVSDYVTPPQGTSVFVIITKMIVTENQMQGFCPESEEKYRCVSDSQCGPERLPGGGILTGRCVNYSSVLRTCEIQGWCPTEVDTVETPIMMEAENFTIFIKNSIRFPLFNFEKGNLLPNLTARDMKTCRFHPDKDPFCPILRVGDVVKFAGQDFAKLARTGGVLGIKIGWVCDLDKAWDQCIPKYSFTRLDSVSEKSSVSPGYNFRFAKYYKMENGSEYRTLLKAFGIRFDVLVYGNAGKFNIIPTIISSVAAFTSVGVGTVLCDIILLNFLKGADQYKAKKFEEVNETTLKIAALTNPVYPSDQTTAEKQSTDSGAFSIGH
- assayProtocol: Evaluation of human P2X3 receptor inhibitory activity (Test Example 1)
- conditionInfo: C6BU-1 cell transfected with human P2X3 receptor gene, FLIPR 384
- Excerpt: […]
Provide the reported IC50 of each item.
Write down the numeric answer in nM and omit the unit.

Ask: Entry under review: C[C@@H](Cn1c(=O)[nH]/c(=N\c2ccc(Oc3ncns3)cc2)n(Cc2ccc(Cl)cc2)c1=O)C(=O)O . Reported IC50?
Reply: 9

Ask: # iterate: COC(=O)C(C)(C)Cn1c(=O)[nH]/c(=N\c2ccc(OC3CCC3)c(F)c2)n(Cc2ccc(Cl)cc2)c1=O
Reply: 31

Ask: Next compound up: COC(=O)[C@@H](C)Cn1c(=O)[nH]/c(=N\c2ccc(Oc3cccc(C(F)(F)F)n3)cc2)n(Cc2ccc(C)cc2)c1=O
Reply: 12

Ask: Please give the result for COC(=O)[C@H](C)[C@H](C)n1c(=O)[nH]/c(=N\c2ccc(Oc3ccccn3)c(C)c2)n(Cc2ccc(Cl)cc2)c1=O too.
Reply: 38

Ask: One more compound: CC(C)(Cn1c(=O)[nH]/c(=N\c2ccc(Oc3ccc(C(F)(F)F)nn3)cc2)n(Cc2ccc(Cl)cc2)c1=O)C(=O)O
Reply: 12

Ask: Now the compound C[C@@H](Cn1c(=O)[nH]/c(=N\c2ccc(Oc3ccc(F)cn3)cc2)n(Cc2ccc(CF)cc2)c1=O)C(=O)O
Reply: 17

---

- targetOfAssay: human P2X3 receptor (Homo sapiens (Human), UniProt P56373)
- assayProtocol: Evaluation of human P2X3 receptor inhibitory activity (Test Example 1)
- conditionInfo: C6BU-1 cell transfected with human P2X3 receptor gene, FLIPR 384
Record form. Attribute: IC50. Fill in for each entry.
The reply should be a number in nM, with the unit left off.

Ask: Any idea what its IC50 is? The molecule is CCOC(=O)[C@H]1C[C@@H](n2c(=O)[nH]/c(=N\c3ccc(Oc4ccc(Cl)cn4)cc3)n(Cc3ccc(C)cc3)c2=O)C1
Reply: 8

Ask: // query: COC(=O)[C@@H](C)Cn1c(=O)[nH]/c(=N\c2ccc(Oc3noc(C)n3)cc2)n(Cc2ccc(Cl)cc2)c1=O
Reply: 17

Ask: Same read-out for COC(=O)C(C)(C)Cn1c(=O)[nH]/c(=N\c2ccc(Oc3ccc(C)cn3)cc2)n(Cc2ccc(C)cc2)c1=O ?
Reply: 4
